assay: Binding affinity to Phosphatidylinositol 3-kinase C-terminal p85 SH2 domain
Numbered stars: 1 amine (or outer) side, 2 acyl side, 3 side chain; on linkers, the order of the positions; unused ones are H or OH. Square brackets hold non-standard residues; d marks the D form. Peptide text beside a SMILES is read from it. X2 = O=C([C@@H](Cc1ccc(C(F)(F)OP(=O)(O)O)cc1)N[*:1])[*:2]; X1 = O=C([C@H](Cc1ccc(C(F)(F)OP(=O)(O)O)cc1)N[*:1])[*:2]; Pmp = N[C@@H](Cc1ccc(CP(=O)(O)O)cc1)C(=O)O; pY = N[C@@H](Cc1ccc(OP(=O)(O)O)cc1)C(=O)O; Nle = CCCC[C@H](N)C(=O)O
The entries below are paired with their reported log10 of ID50.
measured-quantity: log10 of ID50 (log10 of the value in µM)

compound="CSCC[C@H](NC(=O)[C@@H]1CCCN1C(=O)[C@@H](NC(=O)C(Cc1ccc(CP(=O)(O)O)cc1)NC(=O)CN)C(C)C)C(=O)N[C@@H](CC(C)C)C(=O)O (single isomer, unassigned)" measured_quantity="log10 of ID50" obs_value=1.47
compound="CSCC[C@H](NC(=O)[C@@H]1CCCN1C(=O)[C@@H](NC(=O)[C@H](Cc1ccc(OP(=O)(O)O)cc1)NC(=O)CN)C(C)C)C(=O)N[C@@H](CC(C)C)C(=O)O (H-G[pY]VPML-OH)" measured_quantity="log10 of ID50" obs_value=-0.77
compound="CSCC[C@@H]1NC(=O)[C@@H]2CCCN2C(=O)[C@H](C(C)C)NC(=O)[C@H](Cc2ccc(C(F)(F)OP(=O)(O)O)cc2)NC(=O)CNC(=O)[C@H](CC(C)C)NC1=O (cyclo(G[X1]VPML))" measured_quantity="log10 of ID50" obs_value=0.35
compound="CSCC[C@@H]1NC(=O)[C@@H]2CCCN2C(=O)[C@H](C(C)C)NC(=O)[C@@H](Cc2ccc(C(F)(F)OP(=O)(O)O)cc2)NC(=O)CNC(=O)[C@H](CC(C)C)NC1=O (cyclo(G[X2]VPML))" measured_quantity="log10 of ID50" obs_value=1.51
compound="CCCC[C@H](NC(=O)[C@@H]1CCCN1C(=O)[C@@H](NC(=O)C(Cc1ccc(CP(=O)(O)O)cc1)NC(=O)CN)C(C)C)C(=O)N[C@@H](CC(C)C)C(=O)O (single isomer, unassigned)" measured_quantity="log10 of ID50" obs_value=2.04
compound="CCCC[C@@H]1NC(=O)[C@@H]2CCCN2C(=O)[C@H](C(C)C)NC(=O)[C@H](Cc2ccc(C(F)(F)OP(=O)(O)O)cc2)NC(=O)CNC(=O)[C@H](CC(C)C)NC1=O (cyclo(G[X1]VP[Nle]L))" measured_quantity="log10 of ID50" obs_value=0.95
compound="CCCC[C@@H]1NC(=O)[C@@H]2CCCN2C(=O)[C@H](C(C)C)NC(=O)[C@@H](Cc2ccc(C(F)(F)OP(=O)(O)O)cc2)NC(=O)CNC(=O)[C@H](CC(C)C)NC1=O (cyclo(G[X2]VP[Nle]L))" measured_quantity="log10 of ID50" obs_value=1.77
compound=CSCC[C@@H]1NC(=O)[C@H]2CCCN2C(=O)[C@H](C(C)C)NC(=O)[C@@H](Cc2ccc(OP(=O)(O)O)cc2)NC(=O)CNC(=O)[C@@H](CC(C)C)NC1=O measured_quantity="log10 of ID50" obs_value=0.00
compound="CCCC[C@H](NC(=O)[C@@H]1CCCN1C(=O)[C@@H](NC(=O)[C@H](Cc1ccc(CP(=O)(O)O)cc1)NC(=O)CN)C(C)C)C(=O)N[C@@H](CC(C)C)C(=O)O (H-G[Pmp]VP[Nle]L-OH)" measured_quantity="log10 of ID50" obs_value=0.20
compound=CSCC[C@@H]1NC(=O)[C@H]2CCCN2C(=O)[C@H](C(C)C)NC(=O)[C@@H](Cc2ccc(COP(=O)(O)O)cc2)NC(=O)CNC(=O)[C@@H](CC(C)C)NC1=O measured_quantity="log10 of ID50" obs_value=0.72
compound=CCCC[C@@H]1NC(=O)[C@H]2CCCN2C(=O)[C@H](C(C)C)NC(=O)[C@@H](Cc2ccc(OP(=O)(O)O)cc2)NC(=O)CNC(=O)[C@@H](CC(C)C)NC1=O measured_quantity="log10 of ID50" obs_value=1.19
compound="CSCC[C@H](NC(=O)[C@@H]1CCCN1C(=O)[C@@H](NC(=O)[C@H](Cc1ccc(CP(=O)(O)O)cc1)NC(=O)CN)C(C)C)C(=O)N[C@@H](CC(C)C)C(=O)O (H-G[Pmp]VPML-OH)" measured_quantity="log10 of ID50" obs_value=-0.01
